Experiment: Hydrolytic decomposition in 1 M NaOD in 9:1 v/v CD3OD/D2O
Details: buffer, half-life (25 °C), hydrolytic decomposition, 1 M NaOD, 9:1 CD3OD/D2O, 25 °C
ASSAY_READOUT: Half-life

>  <COMPOUND>
C1CCC2=NCCCN2CC1 [DBU, 1,8-diazabicyclo(5.4.0)undec-7-ene, reference compound]

>  <MEASURED_RESULT>
11 h

$$$$

====

Assay: pKaH+ determination by Lambert's method with reference bases (1H NMR)
Settings: Table S2, rotaxane HPF6 salts
ASSAY_READOUT: pKaH+ (MeCN)

>  <COMPOUND>
C1COCCOCCOCCOCCOCCOCCOCCO1.CC(C)(C)c1cc(C[NH2+]Cc2cc(C(C)(C)C)cc(C(C)(C)C)c2)cc(C(C)(C)C)c1.F[P-](F)(F)(F)(F)F [24C8⊂2•HPF6]

>  <MEASURED_RESULT>
26.3

$$$$
>  <COMPOUND>
C1COCCOCCOCCOCCOCCOCCO1.Cc1cc(C)cc(C[NH2+]Cc2cc(C)cc(C)c2)c1.F[P-](F)(F)(F)(F)F [21C7⊂6•HPF6]

>  <MEASURED_RESULT>
32.2

$$$$
>  <COMPOUND>
FC(F)(F)c1cc(C[NH2+]Cc2cc(C(F)(F)F)cc(C(F)(F)F)c2)cc(C(F)(F)F)c1.F[P-](F)(F)(F)(F)F.c1ccc2c(c1)OCCOCCOCCOc1ccccc1OCCOCCOCCO2 [DB24C8⊂3•HPF6]

>  <MEASURED_RESULT>
20.3

$$$$
>  <COMPOUND>
C1COCCOCCOCCOCCOCCOCCO1.FC(F)(F)c1cc(C[NH2+]Cc2cc(C(F)(F)F)cc(C(F)(F)F)c2)cc(C(F)(F)F)c1.F[P-](F)(F)(F)(F)F [21C7⊂3•HPF6]

>  <MEASURED_RESULT>
24.9

$$$$
>  <COMPOUND>
F[P-](F)(F)(F)(F)F.O=C(CC[NH2+]Cc1cc(C(F)(F)F)cc(C(F)(F)F)c1)Nc1cc(C(F)(F)F)cc(C(F)(F)F)c1.c1ccc2c(c1)OCCOCCOCCOc1ccccc1OCCOCCOCCO2 [DB24C8⊂8•HPF6]

>  <MEASURED_RESULT>
20.7

$$$$
>  <COMPOUND>
C1COCCOCCOCCOCCOCCOCCOCCO1.FC(F)(F)c1cc(C[NH2+]Cc2cc(C(F)(F)F)cc(C(F)(F)F)c2)cc(C(F)(F)F)c1.F[P-](F)(F)(F)(F)F [24C8⊂3•HPF6]

>  <MEASURED_RESULT>
20.5

$$$$
